Test system: VchCAST RNA-guided transposition machinery (E. coli BL21(DE3) host, lacZ target)
protocol.summary: relative integration efficiency (T-LR orientation) vs wild-type transposon end (log2 (normalized fold change)); transposon end mutated: right end (5 bp flank + 75 bp right end); higher = more efficient transposition
Cut-off -0.01 on relative integration efficiency (log2), inclusive. At or above means T; below means F.

sequence.input: ACATTTGTTGATACAACCAATAAATGATAATTACACCCATAAATTGATAATTATCACACCCATAAATTGATATTGCCTCTGATCATAGTCAGACCAACATTGCTACGACCCGTATTCGCACCGACAC
category: F
//
sequence.input: ACATTTGTTGATACAACCATAAAATGATAATTAATAATTATCACCCATAAATTGATAATTATCAACAAACGCCCGGTCGCGGTACTCTGATCATAGTCAGACCAACATTGCTACGACCCGTATTCGC
category: F
//
sequence.input: ACATTTGTTGATACAACCATAAAATGATAATTACACCCATAAATTGATAATTATCACACCCATAAATGTCGCGGTAAGAGGATCATAGTCAGACCAACATTGCTACGACCCGTATTCGCACCGACAC
category: T
//
sequence.input: ACATTTGTTGATAAAACCATAAAATGATTTTTAGAAACCATAATCTGAAATTATCACACCCATAAATTGATATTGCCTCTGATCATAGTCAGACCAACATTGCTACGACCCGTATTCGCACCGACAC
category: F
//
sequence.input: ACATTTGTTGATACAACCATAAAATGATAATTACACCCATAAATTGATAATTATCACACCCATAAATTGATATTGCCTCTGATAACTTCGTATAGTATACATTATACGAAGTTATTCGCACCGACAC
category: T

---

Form field: relative integration efficiency (log2) (one value per entry).
System: VchCAST RNA-guided transposition machinery (E. coli BL21(DE3) host, lacZ target)
protocol.summary: relative integration efficiency (T-RL orientation) vs wild-type transposon end (log2 (normalized fold change)); transposon end mutated: left end; higher = more efficient transposition

sequence.input: AATGTTGTTGATGCAACCATAAAGTGATATTTACGCCGGCGGGCGCCGACTACCAGGCCAACACCCCCAACCATATATTGATATCTCACAAAACAACCATAAGTTGATATTTTTGTGAATCGAGTATTTCAGCAAAACTACTGCAGTAAGAA
relative integration efficiency (log2): -3.42
--
sequence.input: AATGTTGTCAACCATAAAGTGATATTTAATAATTATTTATAATCAGCAACTTAACCACAAAACAACCATATATTGATATCTCACAAAACAACCATAAGTTGATATTTTTGTGAATCGAGTATTTCAGCAAAACTACTGCAGTAAGAAAGTTA
relative integration efficiency (log2): -8.1
--
sequence.input: TTTTGTGTTGAAACAACCATAAAGTGATAACAACGAATCAATTAAAATCATAGGCTTAATCGAAAAACAACCATATCTTGATATCGCACAAAACAACCATAAGTTGATATTTTGGTGAAAAGGATATTCCAACCTTCATAGTTTAGTAAGAA
relative integration efficiency (log2): -0.684
--
sequence.input: AATGTTGTTGATGCAACCATAAAGTGATATTTAATAATTATTTATAATCAGCAACTTAACCACAAAACAACCATATATTGATATCTCCAACCATAAGTTGATATTTTTGTGAATCGAGTATTTCAGCAAAACTACTGCAGTAAGAAAGTTAC
relative integration efficiency (log2): -3.71
--
sequence.input: AATGTTGTTGATGCAACCATAAAGTGATATTTACAACCATATATTGATATCTCACAAACAACCATAAGTTGATATTTTTGTGAATCGAGTATTTCAGCAAAACTACTGCAGTAAGAAAGTTACTTCGTGGTATGGGAGGATCAAGGAGCCAA
relative integration efficiency (log2): -2
--
sequence.input: AATGTTGTTGATGCAACCATAAAGTGATATTTAATAATTATTTATAATCAGCAACTTAACCACAAAACAACCATATATTGATATCTCACAAAACAACCCGCCTGGTCGCGGGGGTGTCCGATCTGATTTCAGCAAAACTACTGCAGTAAGAA
relative integration efficiency (log2): -2.27
--
sequence.input: AATGTTGTTGATGCAACCATAAAGTGATATTTAATAATTATTTATAATCAGCAACGGCCAACACCCCACCAACGCGCGGTCGCGAGACACCCCACCAACGCCTGGTCGCGGGGGTGTCCGATCTGATTTCAGCAAAACTACTGCAGTAAGAA
relative integration efficiency (log2): -6.79
--
sequence.input: AATGTTGTTGATGCAACCATAAAGTGATATTTAATAATTATTTATAATCAGCAACTTAACCACAAAACAACCATATATTGATATCTCACAAAACAACCATACTGGTCGCGGGGGTGTCCGATCTGATTTCAGCAAAACTACTGCAGTAAGAA
relative integration efficiency (log2): -2.24
--
sequence.input: AATGTTGTTGATGCAACCATAAAGTGATATTTAATAATTATTTATAATCACAACCATATATTGATATCTCACAAAACAACCATAAGTTGATATTTTTGTGAATCGAGTATTTCAGCAAAACTACTGCAGTAAGAAAGTTACTTCGTGGTATG
relative integration efficiency (log2): -8.21

Attribution: the supplement of paper PMC10201428
